assayNotes: folding stability dG unfold from chymotrypsin proteolysis; higher = more stable

{"sequenceText": "SAGGSAKIEIPIMIPMPPGQEFDLKIRIPNLWKIKIERIYVSPDPGWIMFRIEIEPVAPPNDPEQMSAGGSA [r15_994_TrROS]", "folding stability dG unfold / kcal/mol": 3.64}
{"sequenceText": "SAGGSAGGSAGKIDPKDIEKVEFEIDEESGKGKAFVILKNGEPAEIEFSSIEEAIKALLGSAGGSAGGSAGG [r11_339_TrMRF]", "folding stability dG unfold / kcal/mol": 0.981}
{"sequenceText": "SAELEELLKKAEELAKKNNVEVEVEVKLELEPVKVTEYKLNKDGKPVEKKEEEELELRLEIKVKIRPKKSAG [r14_728_TrROS_Hall]", "folding stability dG unfold / kcal/mol": 3.22}
{"sequenceText": "SAGGSAGGSAGGGATVTETRTEFVPPTGIVRVESVVTYPDGSTRRTSSVVVVERPGAQPSAGGSAGGSAGGS [r10_290_JUSTAS]", "folding stability dG unfold / kcal/mol": 0.872}
{"sequenceText": "SAGGSAEWKEKALKMGAKEVKEDPANGYLYVTFPGPGRTIVIWKKEEDGTVTKVKTVSPSVKVEYKSAGGSA [r15_247_JUSTAS]", "folding stability dG unfold / kcal/mol": 0.817}
{"sequenceText": "SAGGSAGGSAGKKKKKKKKKPPVTLTVEIEIEINGKKYIAKKKVKLNKDGKLEVEVEIYPSAGGSAGGSAGG [r11_555_TrROS_Hall]", "folding stability dG unfold / kcal/mol": 3.23}
{"sequenceText": "SAGMSTTTTAEIKAAVEAAAGEGLNVAPPTVTATDGTPISDDTVIEPGAPVPVTVDVPIDPVPPPELRSAGG [r19_278_JUSTAS]", "folding stability dG unfold / kcal/mol": 0.336}
{"sequenceText": "SAGGSAGGSMIVKLEDGTYLVRIVNKDTKEVIEIEVSAEEAEELAKELNIEKVEIVKAGEPLESAGGSAGGS [r12_294_TrROS_Hall]", "folding stability dG unfold / kcal/mol": 2.71}
{"sequenceText": "SAGMDKPLKVLEIGGAILPNTGKVVLKAKVEDPDSNTPLDLTLTLPVVDPVTGKPYIFTASYTYESPLSAGG [r19_129_TrMRF]", "folding stability dG unfold / kcal/mol": 0.844}
{"sequenceText": "SAGGSAGGSASLDLSNATVLEEKTDPAKGLKTLTIKTPTSTLTITVEFDENGNPVKMTVFESAGGSAGGSAG [r3_5_JUSTAS]", "folding stability dG unfold / kcal/mol": 2.2}
{"sequenceText": "SAGGSAGGKISKEDLEKILEAIKEGKPITIVKVKVEKNENGEEVEKVEVIKTFTAEELKKLGIESAGGSAGG [r6_402_TrROS_Hall]", "folding stability dG unfold / kcal/mol": 1.61}
{"sequenceText": "SAGGSAGGGMRIDDIDIKQDPGNPNRYKITIKFDGPPIEFTVPPGEPLPIRFPDGKPLFEIPIDSAGGSAGG [r6_922_TrROS]", "folding stability dG unfold / kcal/mol": 0.486}
{"sequenceText": "SAGGSAGGSAGGLPDREILEVRVLNPEREETGLRVRVEVVLPDGPVTIELPAEEVKELASAGGSAGGSAGGS [r10_771_TrMRF]", "folding stability dG unfold / kcal/mol": 1.03}
{"sequenceText": "SAGGSAGGSKWKISVHPPNGNSWKIDPGDTIKELVDQMSKENGWPYHIHVSKEEAEKLGLKPVSAGGSAGGS [r12_379_TrROS]", "folding stability dG unfold / kcal/mol": 0.356}
